In this section we review reported IC50 values for a set of molecules.
system: 958767-090-R-J1-PDC spheroid growth; assay: Anticancer human tumor 958767-090-R-J1-PDC patient-derived head and neck squamous carcinoma cell line growth inhibition [IpAb]; settings: curve of first compound; second compound 0.316 µM; spheroids with HUVEC and MSC

molecule	qualifier.operator	IC50 [nM]
C=CC(=O)N1CCN(c2nc(=O)n(-c3c(C)ccnc3C(C)C)c3nc(-c4c(O)cccc4F)c(F)cc23)C(C)C1 (stereo not given) + CCN1CCN(Cc2ccc(Nc3ncc(F)c(-c4cc(F)c5nc(C)n(C(C)C)c5c4)n3)nc2)CC1	=	8180
CCCS(=O)(=O)Nc1ccc(F)c(C(=O)c2c[nH]c3ncc(-c4ccc(Cl)cc4)cc23)c1F + CCN1CCN(Cc2ccc(Nc3ncc(F)c(-c4cc(F)c5nc(C)n(C(C)C)c5c4)n3)nc2)CC1	>	10000
Cn1ncnc1[C@H]1c2n[nH]c(=O)c3cc(F)cc(c23)N[C@@H]1c1ccc(F)cc1 + CCN1CCN(Cc2ccc(Nc3ncc(F)c(-c4cc(F)c5nc(C)n(C(C)C)c5c4)n3)nc2)CC1	=	32.2
Cn1cnc2c(F)c(Nc3ccc(Br)cc3Cl)c(C(=O)NOCCO)cc21 + CCN1CCN(Cc2ccc(Nc3ncc(F)c(-c4cc(F)c5nc(C)n(C(C)C)c5c4)n3)nc2)CC1	=	9.64
CC(C)(C)c1cnc(CSc2cnc(NC(=O)C3CCNCC3)s2)o1 + CCN1CCN(Cc2ccc(Nc3ncc(F)c(-c4cc(F)c5nc(C)n(C(C)C)c5c4)n3)nc2)CC1	=	42.9

---

test system: 958767-090-R-J1-PDC spheroid growth; assay: Anticancer human tumor 958767-090-R-J1-PDC cell line growth inhibition [IpAb]; settings: second compound 10 µM; first compound 0.1 µM; spheroids with HUVEC and MSC; active = viability on the fitted dose curve at most 10% of control; inactive = the rest;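 note: spheroids exposed to agents for 7 days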
Outcome codes: class 1 (active), class 0 (inactive)

compound	label
COc1c(OCCCN2CCOCC2)ccc2c3n(c(=NC(=O)c4cnc(N)nc4)nc12)CCN3 + CC(C)NCC(C(=O)N1CCN(c2ncnc3c2C(C)CC3O)CC1)c1ccc(Cl)cc1	class 1
Cc1nc(NC(=O)N2CCCC2C(N)=O)sc1-c1ccnc(C(C)(C)C(F)(F)F)c1 (stereo not drawn) + CC(C)NCC(C(=O)N1CCN(c2ncnc3c2C(C)CC3O)CC1)c1ccc(Cl)cc1	class 0
CC(C)n1nc(-c2ccc3oc(N)nc3c2)c2c(N)ncnc21 + CC(C)NCC(C(=O)N1CCN(c2ncnc3c2C(C)CC3O)CC1)c1ccc(Cl)cc1	class 0

---

tested on: 958767-090-R-J1-PDC spheroid growth; experiment: Anticancer human tumor 958767-090-R-J1-PDC cell line growth inhibition [IpAb]; details: second compound 10 µM; first compound 10 µM; stronger effect = lower value; spheroids with HUVEC and MSC;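 note: spheroids exposed to agents for 7 days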;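 for viability, T/C: 100% = DMSO vehicle control wells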
In this section we review reported viability, T/C values for a set of compounds.

compound	viability, T/C (%)
Cc1nc(NC(=O)N2CCCC2C(N)=O)sc1-c1ccnc(C(C)(C)C(F)(F)F)c1 (centres undefined) + CC(C)NCC(C(=O)N1CCN(c2ncnc3c2C(C)CC3O)CC1)c1ccc(Cl)cc1	5.52
Cn1nccc1Nc1nccc(-c2ccn(C(CO)c3ccc(Cl)c(F)c3)c(=O)c2)n1 (centres undefined) + CC(C)NCC(C(=O)N1CCN(c2ncnc3c2C(C)CC3O)CC1)c1ccc(Cl)cc1	3.09
C=CC(=O)N1CCN(c2nc(=O)n(-c3c(C)ccnc3C(C)C)c3nc(-c4c(O)cccc4F)c(F)cc23)C(C)C1 (centres undefined) + CC(C)NCC(C(=O)N1CCN(c2ncnc3c2C(C)CC3O)CC1)c1ccc(Cl)cc1	5.8
CC1(C)CCC(CN2CCN(c3ccc(C(=O)NS(=O)(=O)c4ccc(NCC5CCOCC5)c([N+](=O)[O-])c4)c(Oc4cnc5[nH]ccc5c4)c3)CC2)=C(c2ccc(Cl)cc2)C1 + CC(C)NCC(C(=O)N1CCN(c2ncnc3c2C(C)CC3O)CC1)c1ccc(Cl)cc1	0.98

---

In this section we review reported viability, T/C values for a set of molecules.
tested on: 958767-090-R-J1-PDC spheroid growth; test: Anticancer human tumor 958767-090-R-J1-PDC cell line growth inhibition [IpAb]; settings: second compound 0.0316 µM; first compound 10 µM; stronger effect = lower value; spheroids with HUVEC and MSC;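 note: spheroids exposed to agents for 7 days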;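 for viability, T/C: 100% = DMSO vehicle control wells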

molecule	viability, T/C / %
CCCS(=O)(=O)Nc1ccc(F)c(C(=O)c2c[nH]c3ncc(-c4ccc(Cl)cc4)cc23)c1F + CCN1CCN(Cc2ccc(Nc3ncc(F)c(-c4cc(F)c5nc(C)n(C(C)C)c5c4)n3)nc2)CC1	48.3
C=CCn1c(=O)c2cnc(Nc3ccc(N4CCN(C)CC4)cc3)nc2n1-c1cccc(C(C)(C)O)n1 + CCN1CCN(Cc2ccc(Nc3ncc(F)c(-c4cc(F)c5nc(C)n(C(C)C)c5c4)n3)nc2)CC1	21.5
Cc1nc(NC(=O)N2CCCC2C(N)=O)sc1-c1ccnc(C(C)(C)C(F)(F)F)c1 (configuration not stated) + CCN1CCN(Cc2ccc(Nc3ncc(F)c(-c4cc(F)c5nc(C)n(C(C)C)c5c4)n3)nc2)CC1	9.45
C=CC(=O)N1CCN(c2nc(=O)n(-c3c(C)ccnc3C(C)C)c3nc(-c4c(O)cccc4F)c(F)cc23)C(C)C1 (configuration not stated) + CCN1CCN(Cc2ccc(Nc3ncc(F)c(-c4cc(F)c5nc(C)n(C(C)C)c5c4)n3)nc2)CC1	40
Cn1ncc(Cl)c1-c1cc(C(=O)NC(CN)Cc2cccc(F)c2)sc1Cl (configuration not stated) + CCN1CCN(Cc2ccc(Nc3ncc(F)c(-c4cc(F)c5nc(C)n(C(C)C)c5c4)n3)nc2)CC1	0.15
Cn1nccc1Nc1nccc(-c2ccn(C(CO)c3ccc(Cl)c(F)c3)c(=O)c2)n1 (configuration not stated) + CCN1CCN(Cc2ccc(Nc3ncc(F)c(-c4cc(F)c5nc(C)n(C(C)C)c5c4)n3)nc2)CC1	17.1
CC1(C)CCC(CN2CCN(c3ccc(C(=O)NS(=O)(=O)c4ccc(NCC5CCOCC5)c([N+](=O)[O-])c4)c(Oc4cnc5[nH]ccc5c4)c3)CC2)=C(c2ccc(Cl)cc2)C1 + CCN1CCN(Cc2ccc(Nc3ncc(F)c(-c4cc(F)c5nc(C)n(C(C)C)c5c4)n3)nc2)CC1	5.08

---

Tested on: 958767-090-R-J1-PDC spheroid growth
Assay: Anticancer human tumor 958767-090-R-J1-PDC cell line growth inhibition [IpAb];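 note: spheroids exposed to agents for 7 days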
Conditions: curve of first compound; second compound 0.316 µM; spheroids with HUVEC and MSC
Protocol: Combinatorial screen of targeted agents with ipatasertib and abemaciclib in multi-cell type tumor spheroids […] Compounds. […] If the clinical Cmax for an agent had not been determined, the highest concentration tested was 10 microM. NCI60 Cell Culture. […] The optimal seeding densities for each of the cell lines at each time point assessed were determined prior to performing the concentration response studies. […]
In this section we review reported IC50 values for a set of compounds.

compound	assay.target	IC50
COc1c(OCCCN2CCOCC2)ccc2c3n(c(=NC(=O)c4cnc(N)nc4)nc12)CCN3 + CC(C)NCC(C(=O)N1CCN(c2ncnc3c2C(C)CC3O)CC1)c1ccc(Cl)cc1	958767-090-R-J1-PDC spheroid growth	4.43 nM
COc1c(OCCCN2CCOCC2)ccc2c3n(c(=NC(=O)c4cnc(N)nc4)nc12)CCN3 + CCN1CCN(Cc2ccc(Nc3ncc(F)c(-c4cc(F)c5nc(C)n(C(C)C)c5c4)n3)nc2)CC1	958767-090-R-J1-PDC spheroid growth	4.34 nM
C=CCn1c(=O)c2cnc(Nc3ccc(N4CCN(C)CC4)cc3)nc2n1-c1cccc(C(C)(C)O)n1 + CC(C)NCC(C(=O)N1CCN(c2ncnc3c2C(C)CC3O)CC1)c1ccc(Cl)cc1	958767-090-R-J1-PDC spheroid growth	85 nM
Cn1nccc1Nc1nccc(-c2ccn(C(CO)c3ccc(Cl)c(F)c3)c(=O)c2)n1 (stereo not given) + CC(C)NCC(C(=O)N1CCN(c2ncnc3c2C(C)CC3O)CC1)c1ccc(Cl)cc1	958767-090-R-J1-PDC spheroid growth	137 nM
Cn1nccc1Nc1nccc(-c2ccn(C(CO)c3ccc(Cl)c(F)c3)c(=O)c2)n1 (stereo not given) + CCN1CCN(Cc2ccc(Nc3ncc(F)c(-c4cc(F)c5nc(C)n(C(C)C)c5c4)n3)nc2)CC1	958767-090-R-J1-PDC spheroid growth	254 nM

---

system: 958767-090-R-J1-PDC spheroid growth; assay: Anticancer human tumor 958767-090-R-J1-PDC cell line growth inhibition [IpAb]; conditions: second compound 0.1 µM; first compound 0.00316 µM; stronger effect = lower value; spheroids with HUVEC and MSC;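 note: spheroids exposed to agents for 7 days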;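 for viability, T/C: 100% = DMSO vehicle control wells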

molecule	viability, T/C
Cn1ncnc1[C@H]1c2n[nH]c(=O)c3cc(F)cc(c23)N[C@@H]1c1ccc(F)cc1 + CC(C)NCC(C(=O)N1CCN(c2ncnc3c2C(C)CC3O)CC1)c1ccc(Cl)cc1	91.2%
COc1c(OCCCN2CCOCC2)ccc2c3n(c(=NC(=O)c4cnc(N)nc4)nc12)CCN3 + CCN1CCN(Cc2ccc(Nc3ncc(F)c(-c4cc(F)c5nc(C)n(C(C)C)c5c4)n3)nc2)CC1	44.3%
Cn1ncnc1[C@H]1c2n[nH]c(=O)c3cc(F)cc(c23)N[C@@H]1c1ccc(F)cc1 + CCN1CCN(Cc2ccc(Nc3ncc(F)c(-c4cc(F)c5nc(C)n(C(C)C)c5c4)n3)nc2)CC1	60.8%
